- PROCEDURE_SUMMARY: physchem
- TEST_CONDITIONS: distilled water, pH adjusted, 37 °C, pH 3, aqueous buffer, thermodynamic from solid
EXPERIMENTAL_READOUT: solubility at 48 h

Entry CCCn1c(=O)c2[nH]c(C3CCCC3)nc2n(CCC)c1=O has what solubility at 48 h? ~1.6 µg/mL

----------
- PROCEDURE_SUMMARY: physchem
- TEST_CONDITIONS: PBS, 37 °C, pH 7.4, aqueous buffer, thermodynamic from solid
EXPERIMENTAL_READOUT: solubility at 48 h (µg/mL)
Output spec: scalar in µg/mL, unitless text.

Entry CCCn1c(=O)c2[nH]c(C3CCCC3)nc2n(CCC)c1=O [DPCPX, 1,3-dipropyl-8-cyclopentyl xanthine] has what solubility at 48 h? 1.69

----------
- PROCEDURE_SUMMARY: physchem
- TEST_CONDITIONS: distilled water, pH adjusted, 37 °C, pH 11, aqueous buffer, thermodynamic from solid
EXPERIMENTAL_READOUT: solubility at 48 h (µg/mL)
Output spec: scalar in µg/mL, unitless text.

Entry CCCn1c(=O)c2[nH]c(C3CCCC3)nc2n(CCC)c1=O has what solubility at 48 h? 38.1

----------
- PROCEDURE_SUMMARY: physchem
- TEST_CONDITIONS: water, 37 °C, pH 7.4, water, thermodynamic from solid
EXPERIMENTAL_READOUT: solubility at 48 h (µg/mL)
Output spec: scalar in µg/mL, unitless text.

Entry CCCn1c(=O)c2[nH]c(C3CCCC3)nc2n(CCC)c1=O has what solubility at 48 h? 1.62

Recorded values, source patent US9414901B2.
